B1: POU domain, class 3, transcription factor 3, residues 408 to 463; numbered along this chain, P20264 (parent)
chain: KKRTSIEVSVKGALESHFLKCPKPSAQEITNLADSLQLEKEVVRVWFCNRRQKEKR

variants of: B1; assay: abundance fitness (aPCA) (normalised: wild type 0, dead -1); higher = more abundant; growth selection in yeast, the domain comes from the species named; conditions: Homo sapiens
Recorded measurements of abundance fitness, one per entry
Answer with the value's number alone.

Reference set, count: 6
K20A ... -0.218
E39M ... -0.428
T4V ... -0.095
L19G ... -0.238
L36S ... -0.866
K23Y ... -0.05

Specify abundance fitness for `A26H` and stop.
0.071

Specify abundance fitness for `Q27E` and stop.
-0.036

Specify abundance fitness for `A26M` and stop.
-0.063

Specify abundance fitness for `R51N` and stop.
-0.175

Specify abundance fitness for `K11C` and stop.
-0.141

Specify abundance fitness for `Q27K` and stop.
-0.095

Specify abundance fitness for `K1W` and stop.
-0.15

Specify abundance fitness for `E7T` and stop.
0.134

Specify abundance fitness for `S5Q` and stop.
0.203

Specify abundance fitness for `R50P` and stop.
-0.853

Specify abundance fitness for `V8P` and stop.
0.195
